Give Selectivity P2X3/P2X2/3 for every item shown.
Target: human P2X3 receptor (homomeric P2X3 channels) (Homo sapiens, UniProt P56373)
Construct: expressed in transfected cells; host or cells: HEK293 human embryonic kidney cells (HEK-hP2X3)
Test: FlexStation calcium fluorescence assay, homomeric P2X3 channels (HEK-hP2X3 cells)
Format: cell-based
Conditions: potency ratio P2X3 over P2X2/3 from pIC50s

Would you please look over these solved cases?
- COc1nc(C(C)C)c(Oc2cnc(N)nc2N)cc1S(C)(=O)=O [Compound 16]: >145
- CC#Cc1cc(Sc2cnc(N)nc2N)c(C(C)C)cc1OC [Compound 6]: >13
- COc1cc(C(C)C)c(Sc2cnc(N)nc2N)cc1-c1nnn[nH]1 [Compound 11]: >58
- COc1cc(C(C)C)c(Sc2cnc(N)nc2N)cc1S(N)(=O)=O [Compound 3]: >67

Need Selectivity P2X3/P2X2/3, item COc1cc(C(C)C)c(Sc2cnc(N)nc2N)cc1Br [Compound 8] >47

----------
Target: human P2X3 receptor (homomeric P2X3 channels) (Homo sapiens, UniProt P56373)
Construct: expressed in transfected cells; host or cells: HEK293 human embryonic kidney cells (HEK-hP2X3)
Assay: FlexStation calcium fluorescence assay, homomeric P2X3 channels (HEK-hP2X3 cells)
Type: cell-based
Conditions: potency ratio P2X3 over P2X2/3 from pIC50s
Give Selectivity P2X3/P2X2/3 for every item shown.

• COc1nc(C(C)C)c(Nc2cnc(N)nc2N)cc1S(C)(=O)=O [Compound 36] = >370
• COc1cc(C(C)C)c(Sc2cnc(N)nc2N)cc1Cl [Compound 9] = >56
• COc1cc(C(C)C)c(Nc2cnc(N)nc2N)cc1S(C)(=O)=O [Compound 37] = >73
• COc1nc(C(C)C)c(Oc2cnc(N)nc2N)cc1S(C)(=N)=O (centres unmarked) [Compound 43] = >3.4

Need Selectivity P2X3/P2X2/3, item COc1nc(C(C)C)c(Oc2cnc(N)nc2N)cc1C#N [Compound 17] >10

----------
Biological target: human P2X3 receptor (homomeric P2X3 channels) (Homo sapiens, UniProt P56373)
Construct: expressed in transfected cells; host or cells: HEK293 human embryonic kidney cells (HEK-hP2X3)
Assay: FlexStation calcium fluorescence assay, homomeric P2X3 channels (HEK-hP2X3 cells)
Type: cell-based
Conditions: potency ratio P2X3 over P2X2/3 from pIC50s
METRIC: Selectivity P2X3/P2X2/3

• COc1cc(C(C)C)c(Sc2cnc(N)nc2N)cc1C(=O)O = >2
• COc1nc(C(C)C)c(Sc2cnc(N)nc2N)cc1SC(F)(F)F = >2.5
• COc1nc(C(C)C)c(Oc2cnc(N)nc2N)cc1[S+](C)[O-] (stereo not drawn) = >33
• COc1nc(C(C)C)c(Sc2cnc(N)nc2N)cc1S(C)(=O)=O = >52
• CCc1cc(OC)c(I)cc1Sc1cnc(N)nc1N = >24

Please look at the following molecule next.
Please tell me: Selectivity P2X3/P2X2/3 of COc1cc(C(C)C)c(Sc2cnc(N)nc2N)cc1C , system human P2X3 receptor (homomeric P2X3 channels) (Homo sapiens, UniProt P56373)? >34

----------
Target: human P2X3 receptor (homomeric P2X3 channels) (Homo sapiens, UniProt P56373)
Construct: expressed in transfected cells; host or cells: HEK293 human embryonic kidney cells (HEK-hP2X3)
Sequence (P56373 1-397): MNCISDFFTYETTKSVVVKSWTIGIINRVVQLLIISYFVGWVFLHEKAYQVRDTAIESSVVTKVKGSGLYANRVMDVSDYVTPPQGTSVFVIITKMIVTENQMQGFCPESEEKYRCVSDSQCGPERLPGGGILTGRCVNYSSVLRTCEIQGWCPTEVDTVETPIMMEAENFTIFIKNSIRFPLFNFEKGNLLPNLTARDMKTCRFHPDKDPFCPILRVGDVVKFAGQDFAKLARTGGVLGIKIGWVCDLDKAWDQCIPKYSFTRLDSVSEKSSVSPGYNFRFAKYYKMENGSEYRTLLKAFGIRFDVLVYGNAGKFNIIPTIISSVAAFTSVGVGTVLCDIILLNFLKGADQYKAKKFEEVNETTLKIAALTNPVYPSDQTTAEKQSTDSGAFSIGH
Assay: FlexStation calcium fluorescence assay, homomeric P2X3 channels (HEK-hP2X3 cells)
Assay type: cell-based
Conditions: HEK293 cells stably transfected with human P2X3; agonist 1 μM α,β-meATP; highest concentration tested 10 μM; read-out: Average pIC50 P2X3 (converted)
Give log10 IC50 for every item shown.
Please be aware that the numbers have been log10-transformed from IC50 in µM.

For the 5 molecules below, give their log10 IC50 values.
1. COc1nc(C(C)C)c(Sc2cnc(N)nc2N)cc1C#N
2. COc1nc(C(C)C)c(Sc2cnc(N)nc2N)cc1Cl
3. COc1cc(C(C)C)c(Nc2cnc(N)nc2N)cc1S(C)(=O)=O
4. COc1nc(C(C)C)c(Oc2cnc(N)nc2N)cc1SC(F)(F)F
5. COc1nc(C(C)C)c(Nc2cnc(N)nc2N)cc1Cl

[0.90, -0.70, -0.90, -0.20, -2.00]

For the 4 molecules below, give their log10 IC50 values.
1. C#Cc1cc(Sc2cnc(N)nc2N)c(C(C)C)nc1OC
2. CCc1cc(OC)c(I)cc1Sc1cnc(N)nc1N
3. COc1nc(C(C)C)c(Oc2cnc(N)nc2N)cc1Cl
4. COc1cc(C(C)C)c(Nc2cnc(N)nc2N)cc1Cl

1: -1.30; 2: -0.40; 3: -1.60; 4: -1.60

----------
Molecular target: human P2X2/3 receptor (heteromeric P2X2/3 channels) (Homo sapiens, UniProt P56373+Q9UBL9)
Construct: expressed in transfected cells; host or cells: 1321N1 human astrocytoma cells (1321N1-hP2X2/3)
Test: FlexStation calcium fluorescence assay, heteromeric P2X2/3 channels (1321N1-hP2X2/3 cells)
Type: cell-based
Conditions: agonist 3 μM ATP, highest concentration tested 10 μM, read-out: Average pIC50 P2X2/3 (converted)
Give IC50 for every item shown.

* COc1nc(C(C)C)c(Oc2cnc(N)nc2N)cc1S(C)(=N)=O (stereo not shown) | > 10 µM

For the 6 compounds below, give their IC50 values.
1. COc1cc(C(C)C)c(Nc2cnc(N)nc2N)cc1C(F)(F)F
2. COc1nc(C(C)C)c(Sc2cnc(N)nc2N)cc1S(N)(=O)=O
3. COc1cc(C(C)C)c(S(=O)(=O)c2cnc(N)nc2N)cc1OC [Comparative Compound 2, reference compound]
4. COc1cc(Nc2cnc(N)nc2N)c(C(C)C)cc1OC
5. COc1nc(C(C)C)c(Oc2cnc(N)nc2N)nc1N(C)C
6. CCc1cc(OC)c(S(C)(=O)=O)cc1Sc1cnc(N)nc1N

> 10 µM
0.631 µM
> 10 µM
1.58 µM
> 10 µM
> 10 µM

For the 2 compounds below, give their IC50 values.
1. COc1cc(C(C)C)c([S+]([O-])c2cnc(N)nc2N)cc1OC (stereo not shown) [Comparative Compound 1, reference compound]
2. COc1cc(Nc2cnc(N)nc2N)c(C(C)C)nc1OC

1: > 10 µM; 2: 2 µM

Need IC50, item COc1nc(C(C)C)c(Sc2cnc(N)nc2N)cc1Cl > 10 µM

----------
Target: human P2X2/3 receptor (heteromeric P2X2/3 channels) (Homo sapiens, UniProt P56373+Q9UBL9)
Construct: expressed in transfected cells; host or cells: 1321N1 human astrocytoma cells (1321N1-hP2X2/3)
Experiment: FlexStation calcium fluorescence assay, heteromeric P2X2/3 channels (1321N1-hP2X2/3 cells)
Type: cell-based
Conditions: agonist 3 μM ATP, highest concentration tested 10 μM, read-out: Average pIC50 P2X2/3 (converted)
METRIC: IC50

For the 3 compounds below, give their IC50 values.
1. COc1nc(C(C)C)c(Nc2cnc(N)nc2N)cc1S(C)(=O)=O [Compound 36]
2. CCc1cc(OC)c(I)cc1Sc1cnc(N)nc1N [Compound 21]
3. COc1nc(C(C)C)c(Nc2cnc(N)nc2N)cc1C(F)(F)F [Compound 35]

1: > 10 µM; 2: > 10 µM; 3: 7.94 µM

----------
Target: human P2X3 receptor (homomeric P2X3 channels) (Homo sapiens, UniProt P56373)
Construct: expressed in transfected cells; host or cells: HEK293 human embryonic kidney cells (HEK-hP2X3)
Assay: FlexStation calcium fluorescence assay, homomeric P2X3 channels (HEK-hP2X3 cells)
Assay type: cell-based
Settings: HEK293 cells stably transfected with human P2X3; agonist 1 μM α,β-meATP; highest concentration tested 10 μM; read-out: Average pIC50 P2X3 (converted)
Give IC50 for every item shown.
Give bare numbers, in nM.

Would you please look over these solved cases?
- COc1nc(C(C)C)c(Sc2cnc(N)nc2N)cc1S(C)(=O)=O: 200
- COc1nc(C(C)C)c(Sc2cnc(N)nc2N)cc1S(N)(=O)=O: 79.4
- COc1cc(Nc2cnc(N)nc2N)c(C(C)C)cc1OC: 63.1

Please look at the following compound next.
Please tell me: IC50 of COc1nc(C(C)C)c(Nc2cnc(N)nc2N)cc1S(C)(=O)=O , system human P2X3 receptor (homomeric P2X3 channels) (Homo sapiens, UniProt P56373)? 25.1
